# maps each entry to its % Mortality 24 h
Tested on: larvae of blowfly, Lucilia sericata
Experiment: whole plant or invertebrate
Details: dose rate of 20 ppm; Lucilia sericata larvae on treated filter paper with bovine serum; assessed at 24 h
Please reply with the bare figure in % and do not write the unit itself.

Before answering, review these 3 worked examples.
N#Cc1ccc(C2=C(O)C(=Cc3ccc(Cl)cc3)OC2=O)cc1 (mixture of isomers); 25
N#Cc1ccc(C2=C(O)C(=Cc3ccc(-c4ccc(C(F)(F)F)cc4)cc3)OC2=O)cc1 (mixture of isomers); 0
O=C1OC(=Cc2ccc(-c3ccc(Cl)cc3)cc2)C(O)=C1c1ccc(C(F)(F)F)cc1 (mixture of isomers); 0

Reported % Mortality 24 h for C=CCOC1=C(c2ccc(Cl)cc2)C(=O)OC1=Cc1ccc(C#N)cc1 (mixture of isomers) was 0

Reported % Mortality 24 h for O=C1OC(=Cc2ccc(C(F)(F)F)cc2)C(O)=C1c1cccc(Cl)c1 (mixture of isomers) was 60
